B1: glmS ribozyme (parent)
chain: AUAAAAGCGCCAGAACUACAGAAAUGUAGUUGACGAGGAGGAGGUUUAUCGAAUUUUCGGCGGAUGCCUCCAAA

# Variants of: B1
# assay-notes: self-cleavage kobs at 40 uM GlcN6P; higher = faster cleavage; RNA array
# experimental-context: with glucosamine-6-phosphate
Fewer inactive variants are shown than the library holds.
measured-parameter: self-cleavage kobs at 40 uM GlcN6P

q: I would be grateful if you could share the reported self-cleavage kobs at 40 uM GlcN6P for A6C G29C A36G .
a: < 1e-05 s⁻¹

q: Input A6U C8U
a: < 1e-05 s⁻¹

q: Input G32A A53U U65C
a: < 1e-05 s⁻¹

q: Input U47A G60A
a: < 1e-05 s⁻¹

q: Input G13A G66U
a: < 1e-05 s⁻¹

q: Input A42G U57A G66U
a: < 1e-05 s⁻¹

q: Input G35A U45A C61A G62C
a: < 1e-05 s⁻¹

q: Input A42G G43C
a: < 1e-05 s⁻¹

q: Input U31C A53U
a: 9.39e-05 s⁻¹

q: Input G13C G41U C70U
a: < 1e-05 s⁻¹

q: Input C10U C11G U65G
a: < 1e-05 s⁻¹

q: Input U45A G59U
a: < 1e-05 s⁻¹

q: Input U30G C71U
a: 0.00033 s⁻¹

q: Input G13A A53U
a: < 1e-05 s⁻¹

q: Input A14G U30A A39G A53C
a: 9.97e-05 s⁻¹

q: Input C10G C61U C71A
a: < 1e-05 s⁻¹

q: Input A33U C34U
a: < 1e-05 s⁻¹

q: Input U56A C70G
a: 4.01e-05 s⁻¹

q: Input A6C U49C
a: < 1e-05 s⁻¹

q: Input C34G G35C
a: < 1e-05 s⁻¹

q: Input A42G G66A
a: 0.000416 s⁻¹

q: Input G40C U45A
a: 7.94e-05 s⁻¹
